Listing of entries alongside the reported koff.
Biological target: T1, cynomolgus IL-1α (cynomolgus, UniProt P79340 113-271, limits assumed)
T1 construct: also called cyno IL-1α
T1 sequence (looked up): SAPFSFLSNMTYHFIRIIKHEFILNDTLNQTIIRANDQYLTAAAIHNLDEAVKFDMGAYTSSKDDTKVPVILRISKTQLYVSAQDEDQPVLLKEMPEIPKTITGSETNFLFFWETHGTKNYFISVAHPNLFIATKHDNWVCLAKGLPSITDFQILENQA
Test: SPR (BIACORE), antibody captured, IL-1α in solution
// return numeric value only (unit: s⁻¹, not printed)

1) h3D12-362-10/372-15 (antibody, V domains shown) VH: EVQLVQSGAEVKKPGVSVKVSCKASGYTFTTYGMHWVRQAPGQGLEWMGWINTYTGESTYADDFQGRVTFTLDTSTSTAYMELSSLRSEDTAVYFCARGIYYYGSSYAMNYWGQGTTVTVSS VL: DIQMTQSPSSLSASVGDRVTITCRASQDISNMLNWYQQKPGKTPKLLIYYTSRLYPGVPSRFSGSGSGTDYTFTISSLQPEDIATYFCQQGKTLPYAFGQGTKLEIK	2.25e-05
2) h3D12.r16 (antibody, V domains shown) VH: EVQLVQSGAEVKKPGASVKVSCKASGYTFKYYGMNWVRQAPGQGLERMGWINTYTGQSTYADDFKGRVTFTLDTSTSTAYMELSSLRSEDTAVYYCARDIYYYGSDFAMDYWGQGTTVTVSS VL: DIQMTQSPSSLSASVGDRVTITCRASQDISNMLNWYQQKPGKAPKLLIYYTSRLKPGVPSRFSGSGSGTDYTFTISSLQPEDIATYFCQQGKTAPYTFGQGTKLEIK	1.33e-05

We now examine a further binder.
Which koff value belongs to h3D12.r10 (antibody, V domains shown) VH: EIQLVQSGAEVKKPGASVKVSCKASGYTFAHYGMNWVRQAPGQGLEWMGWINTYTGQSTYADDFKGRFTFTLDTSTSTAYMELSSLRSEDTAVYYCARGIYYFGSNYAMDYWGQGTTVTVSS VL: DIQMTQSPSSLSASVGDRVTITCRASQDISNMLNWYQQKPGKTPKLLIYYTSRLRSGVPSRFSGSGSGTDYTFTISSLQPEDIATYFCQQGKKPPYTFGQGTKLEIK ?
1.2e-05
